System: PC-3
Experiment: Cytotoxicity against human PC3 cells at 30 uM after 48 hrs by SRB assay
Type: functional
Settings: PC-3, 48 h, read-out: GI
Reported metric: inhibition of growth at 30 µM (%)
Numbers only, in %.

Sample answers from the record:
{"Compound": "C=C(C)[C@@H]1CC[C@]2(C(=O)O)CC[C@]3(C)[C@H](CC[C@@H]4[C@@]5(C)CC[C@H](OCc6cn(C7O[C@H](COC(C)=O)[C@H](OC(C)=O)[C@H](OC(C)=O)[C@H]7OC(C)=O)nn6)C(C)(C)[C@@H]5CC[C@]43C)[C@@H]12 (some centres undefined)", "Units symbol": "%", "inhibition of growth at 30 µM": 32}
{"Compound": "C=C(C)[C@@H]1CC[C@]2(C(=O)O)CC[C@]3(C)[C@H](CC[C@@H]4[C@@]5(C)CC[C@H](OCc6cn(-c7ccc([N+](=O)[O-])cc7)nn6)C(C)(C)[C@@H]5CC[C@]43C)[C@@H]12", "Units symbol": "%", "inhibition of growth at 30 µM": 59}
{"Compound": "C=C(C)[C@@H]1CC[C@]2(C(=O)O)CC[C@]3(C)[C@H](CC[C@@H]4[C@@]5(C)CC[C@H](OCc6cn(-c7ccc(C(=O)c8ccccc8)cc7)nn6)C(C)(C)[C@@H]5CC[C@]43C)[C@@H]12", "Units symbol": "%", "inhibition of growth at 30 µM": 4}

Dear colleague, could you send me inhibition of growth at 30 µM for each of the items below? Thanks.
1. C=C(C)[C@@H]1CC[C@]2(C(=O)O)CC[C@]3(C)[C@H](CC[C@@H]4[C@@]5(C)CC[C@H](OCc6cn(-c7ccc8c(c7)OCO8)nn6)C(C)(C)[C@@H]5CC[C@]43C)[C@@H]12
2. C=C(C)[C@@H]1CC[C@]2(C(=O)O)CC[C@]3(C)[C@H](CC[C@@H]4[C@@]5(C)CC[C@H](OCc6cn(-c7ccc(Cl)cc7)nn6)C(C)(C)[C@@H]5CC[C@]43C)[C@@H]12
3. C=C(C)[C@@H]1CC[C@]2(C(=O)O)CC[C@]3(C)[C@H](CC[C@@H]4[C@@]5(C)CC[C@H](OCc6cn(-c7cc(I)ccc7C)nn6)C(C)(C)[C@@H]5CC[C@]43C)[C@@H]12
4. C=C(C)[C@@H]1CC[C@]2(C(=O)O)CC[C@]3(C)[C@H](CC[C@@H]4[C@@]5(C)CC[C@H](OCc6cn(-c7cccc8c(O)cccc78)nn6)C(C)(C)[C@@H]5CC[C@]43C)[C@@H]12
5. C=C(C)[C@@H]1CC[C@]2(C(=O)O)CC[C@]3(C)[C@H](CC[C@@H]4[C@@]5(C)CC[C@H](OCc6cn(-c7cc(C)cc(O)c7)nn6)C(C)(C)[C@@H]5CC[C@]43C)[C@@H]12
6. C=C(C)[C@@H]1CC[C@]2(C(=O)O)CC[C@]3(C)[C@H](CC[C@@H]4[C@@]5(C)CC[C@H](OCc6cn(-c7ccc(C#N)cc7)nn6)C(C)(C)[C@@H]5CC[C@]43C)[C@@H]12

Result block:
1. 32
2. 40
3. 22
4. 61
5. 74
6. 5

###

I'd appreciate it if you could supply inhibition of growth at 50 µM values for the items below.
Test system: DU-145
Assay: Cytotoxicity against human DU145 cells at 50 uM after 48 hrs by SRB assay
Assay type: functional
Conditions: DU-145, 48 h, read-out: GI

Worked cases, answers included:
{"Molecule": "C=C(C)[C@@H]1CC[C@]2(C(=O)O)CC[C@]3(C)[C@H](CC[C@@H]4[C@@]5(C)CC[C@H](OCc6cn(-c7cc(I)ccc7C)nn6)C(C)(C)[C@@H]5CC[C@]43C)[C@@H]12", "inhibition of growth at 50 µM": "65%"}
{"Molecule": "C=C(C)[C@@H]1CC[C@]2(C(=O)O)CC[C@]3(C)[C@H](CC[C@@H]4[C@@]5(C)CC[C@H](OCc6cn(C7O[C@H](COC(C)=O)[C@@H](OC(C)=O)[C@H](OC(C)=O)[C@H]7OC(C)=O)nn6)C(C)(C)[C@@H]5CC[C@]43C)[C@@H]12 (some centres undefined)", "inhibition of growth at 50 µM": "8%"}
{"Molecule": "C=C(C)[C@@H]1CC[C@]2(C(=O)O)CC[C@]3(C)[C@H](CC[C@@H]4[C@@]5(C)CC[C@H](OCc6cn(-c7ccc(Cl)cc7)nn6)C(C)(C)[C@@H]5CC[C@]43C)[C@@H]12", "inhibition of growth at 50 µM": "55%"}
{"Molecule": "C=C(C)[C@@H]1CC[C@]2(C(=O)O)CC[C@]3(C)[C@H](CC[C@@H]4[C@@]5(C)CC[C@H](OCc6cn(-c7ccc(CC#N)cc7)nn6)C(C)(C)[C@@H]5CC[C@]43C)[C@@H]12", "inhibition of growth at 50 µM": "68%"}
{"Molecule": "C=C(C)[C@@H]1CC[C@]2(C(=O)O)CC[C@]3(C)[C@H](CC[C@@H]4[C@@]5(C)CC[C@H](OCc6cn(-c7cccc8c(O)cccc78)nn6)C(C)(C)[C@@H]5CC[C@]43C)[C@@H]12", "inhibition of growth at 50 µM": "86%"}

For the 4 molecules below, give their inhibition of growth at 50 µM values.
1. C=C(C)[C@@H]1CC[C@]2(C(=O)O)CC[C@]3(C)[C@H](CC[C@@H]4[C@@]5(C)CC[C@H](OCc6cn(-c7cc(OC)c(OC)c(OC)c7)nn6)C(C)(C)[C@@H]5CC[C@]43C)[C@@H]12
2. C=C(C)[C@@H]1CC[C@]2(C(=O)O)CC[C@]3(C)[C@H](CC[C@@H]4[C@@]5(C)CC[C@H](OCc6cn(-c7ccccc7C#N)nn6)C(C)(C)[C@@H]5CC[C@]43C)[C@@H]12
3. C=C(C)[C@@H]1CC[C@]2(C(=O)O)CC[C@]3(C)[C@H](CC[C@@H]4[C@@]5(C)CC[C@H](OCc6cn(-c7ccc8c(c7)OCO8)nn6)C(C)(C)[C@@H]5CC[C@]43C)[C@@H]12
4. C=C(C)[C@@H]1CC[C@]2(C(=O)O)CC[C@]3(C)[C@H](CC[C@@H]4[C@@]5(C)CC[C@H](OCc6cn(-c7cc(C)cc(O)c7)nn6)C(C)(C)[C@@H]5CC[C@]43C)[C@@H]12

Result block:
1. 11%
2. 84%
3. 91%
4. 97%

###

Tested on: THP-1
Test: Cytotoxicity against human THP1 cells after 48 hrs by SRB assay
Type: functional, cell-based
Details: THP-1, 48 h
Reported metric: pIC50
Give bare numbers, as −log10 of the molar value.

Here is how some compounds turned out for pIC50.
{"Structure smiles string": "C=C(C)[C@@H]1CC[C@]2(C(=O)O)CC[C@]3(C)[C@H](CC[C@@H]4[C@@]5(C)CC[C@H](OCc6cn(-c7ccc(C(=O)c8ccccc8)cc7)nn6)C(C)(C)[C@@H]5CC[C@]43C)[C@@H]12", "Tested target": "THP-1", "pIC50": 4.36}
{"Structure smiles string": "C=C(C)[C@@H]1CC[C@]2(C(=O)O)CC[C@]3(C)[C@H](CC[C@@H]4[C@@]5(C)CC[C@H](OCc6cn(-c7ccccc7CO)nn6)C(C)(C)[C@@H]5CC[C@]43C)[C@@H]12", "Tested target": "THP-1", "pIC50": 4.82}
{"Structure smiles string": "C=C(C)[C@@H]1CC[C@]2(C(=O)O)CC[C@]3(C)[C@H](CC[C@@H]4[C@@]5(C)CC[C@H](OCc6cn(-c7ccc(CC#N)cc7)nn6)C(C)(C)[C@@H]5CC[C@]43C)[C@@H]12", "Tested target": "THP-1", "pIC50": 4.92}

For every item below, please supply its pIC50.
1. C=C(C)[C@@H]1CC[C@]2(C(=O)O)CC[C@]3(C)[C@H](CC[C@@H]4[C@@]5(C)CC[C@H](OCc6cn(-c7ccc(Cl)cc7)nn6)C(C)(C)[C@@H]5CC[C@]43C)[C@@H]12
2. C=C(C)[C@@H]1CC[C@]2(C(=O)O)CC[C@]3(C)[C@H](CC[C@@H]4[C@@]5(C)CC[C@H](OCc6cn(-c7cccc(CO)c7)nn6)C(C)(C)[C@@H]5CC[C@]43C)[C@@H]12
3. C=C(C)[C@@H]1CC[C@]2(C(=O)O)CC[C@]3(C)[C@H](CC[C@@H]4[C@@]5(C)CC[C@H](OCc6cn(-c7cccc(I)c7)nn6)C(C)(C)[C@@H]5CC[C@]43C)[C@@H]12
4. C=C(C)[C@@H]1CC[C@]2(C(=O)O)CC[C@]3(C)[C@H](CC[C@@H]4[C@@]5(C)CC[C@H](OCc6cn(-c7cccc(OC)c7)nn6)C(C)(C)[C@@H]5CC[C@]43C)[C@@H]12
5. C=C(C)[C@@H]1CC[C@]2(C(=O)O)CC[C@]3(C)[C@H](CC[C@@H]4[C@@]5(C)CC[C@H](O)C(C)(C)[C@@H]5CC[C@]43C)[C@@H]12

Result block:
1: 5.00; 2: 5.00; 3: 4.34; 4: 4.33; 5: 4.70
